List of Relative Biological Activity (AML 193 proliferation) values.
# SYSTEM_NAME: T1, hIL-3 receptor (human, UniProt P26951)
# T1 sequence: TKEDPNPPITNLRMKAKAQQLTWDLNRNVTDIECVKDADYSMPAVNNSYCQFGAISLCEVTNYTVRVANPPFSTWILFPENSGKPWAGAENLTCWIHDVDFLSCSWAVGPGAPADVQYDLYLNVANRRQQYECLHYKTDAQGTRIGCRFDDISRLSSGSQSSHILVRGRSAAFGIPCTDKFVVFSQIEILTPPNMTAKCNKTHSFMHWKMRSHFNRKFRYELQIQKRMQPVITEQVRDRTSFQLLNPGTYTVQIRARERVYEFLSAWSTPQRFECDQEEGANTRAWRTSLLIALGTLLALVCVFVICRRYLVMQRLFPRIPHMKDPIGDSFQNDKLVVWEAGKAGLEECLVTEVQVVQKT
# ASSAY_OVERVIEW: cell-based or functional assay

pMON13413 polypeptide (ligand) MANCSIMIDEIIHHLKRPPNPLLDPNNLNSEDMDILMERNLRTPNLLAFVRAVKHLENASGIEAILRNLQPCLPSATAAPSRHPIIIKAGDWQEFRLKLQFYLSSLEQAQEQQ
0.6 EC50 (1-133)hIL-3 / EC50 mutant
pMON13299 polypeptide (ligand) MANCSNMIDEIITHLKQPPLPLLDFNNLNGEDQDILMENNLRRPNLEAFNRAVKSLQNASGIEAILRNLVPCLPSATAAPSRHPITIKAGDWQEFREKLTFYLVTLEQAQEQQ
2 EC50 (1-133)hIL-3 / EC50 mutant
pMON13382 polypeptide (ligand) MANCSIMIDEIIHHLKRPPAPLLDPNNLNAEDVDILMERNLRLPNLESFVRAVKNLENASGIEAILRNLQPCLPSATAAPSRHPIIIKAGDWQEFREKLQFYLWTLEQAQEQQ
38 EC50 (1-133)hIL-3 / EC50 mutant

Here's the next entry for you.
Prompt line: Suppose we examine the binder pMON13404 polypeptide (ligand) MANCSIMIDEIIHHLKRPPAPLLDPNNLNAEDVDILMERNLRLPNLESFVRAVKNLENASGIEAILRNLQPCLPSATAAPSRHPIIIKAGDWQEFREKLQFYLVTLE ; what Relative Biological Activity (AML 193 proliferation) value has been reported?
Response line: 1.3 EC50 (1-133)hIL-3 / EC50 mutant

Data origin: patent US6051217
